target-system: T1, human GPC3-his tag protein (human, UniProt P51654 25-559, limits assumed)
T1 construct: recombinant soluble antigen used as analyte in all Biacore runs; also called recombinant GPC3 protein; rhGPC3-His; not shown: His tag
experimental-details: SPR Biacore 8K, mAb captured, affinity ranking
Form field: kon (one value per entry).

{"binder": "52H5D3B8-6#-VH2+VL3 (antibody, V domains shown, humanized) VH: QVQLVQSGAEVKKPGASVKVSCKASGYTFTDYEMHWVRQAPGQGLEWIGAIHPGSGGTAYNQKFKGRVTMTADTSTSTVYMELSSLRSEDTAVYYCTRYYSYAYWGQGTLVTVSS VL: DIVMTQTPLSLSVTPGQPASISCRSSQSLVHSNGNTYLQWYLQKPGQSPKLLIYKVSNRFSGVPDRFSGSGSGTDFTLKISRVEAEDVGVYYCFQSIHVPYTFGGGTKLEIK", "kon": "668000 M⁻¹ s⁻¹"}
{"binder": "52H5D3B8-6#-VH2+VL4 (antibody, V domains shown, humanized) VH: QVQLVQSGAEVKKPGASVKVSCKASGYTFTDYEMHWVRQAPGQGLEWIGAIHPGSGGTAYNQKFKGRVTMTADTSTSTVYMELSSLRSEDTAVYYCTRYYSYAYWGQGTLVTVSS VL: DIVMTQTPLSLSVTPGQPASISCRSSQSLVHSNGNTYLQWYLQKPGQSPKLLIYKVSNRFSGVPDRFSGSGSGTDFTLKISRVEAEDVGVYFCFQSIHVPYTFGGGTKLEIK", "kon": "648000 M⁻¹ s⁻¹"}
{"binder": "52H5D3B8-6#-VH4+VL2 (antibody, V domains shown, humanized) VH: QVQLVQSGAEVKKPGASVKVSCKALGYTFTDYEMHWVKQAPGQGLEWIGAIHPGSGGTAYNQKFKGRATMTADKFTSTVYMELSSLRSEDTAVYYCTRYYSYAYWGQGTLVTVSS VL: DIVMTQTPLSLSVTPGQPASISCRSSQSLVHSNGNTYLQWYLQKPGQSPQLLIYKVSNRFSGVPDRFSGSGSGTDFTLKISRVEAEDVGVYFCFQSIHVPYTFGGGTKLEIK", "kon": "642000 M⁻¹ s⁻¹"}
{"binder": "52H5D3B8-6#-VH1+VL2 (antibody, V domains shown, humanized) VH: QVQLVQSGAEVKKPGASVKVSCKASGYTFTDYEMHWVRQAPGQGLEWMGAIHPGSGGTAYNQKFKGRVTMTRDTSTSTVYMELSSLRSEDTAVYYCARYYSYAYWGQGTLVTVSS VL: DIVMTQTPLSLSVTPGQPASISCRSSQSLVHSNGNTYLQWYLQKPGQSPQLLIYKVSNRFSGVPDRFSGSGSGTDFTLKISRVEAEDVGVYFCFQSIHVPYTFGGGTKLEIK", "kon": "564000 M⁻¹ s⁻¹"}
{"binder": "52H5D3B8-6#-VH2+VL2 (antibody, V domains shown, humanized) VH: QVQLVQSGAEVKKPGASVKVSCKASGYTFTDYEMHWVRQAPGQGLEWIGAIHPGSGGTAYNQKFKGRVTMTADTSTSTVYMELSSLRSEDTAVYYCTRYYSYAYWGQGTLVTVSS VL: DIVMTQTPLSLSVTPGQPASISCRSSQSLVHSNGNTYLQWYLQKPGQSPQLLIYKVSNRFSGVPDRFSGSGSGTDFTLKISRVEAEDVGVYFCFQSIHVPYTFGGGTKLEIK", "kon": "651000 M⁻¹ s⁻¹"}
{"binder": "52H5D3B8-6#-VH2+VL1 (antibody, V domains shown, humanized) VH: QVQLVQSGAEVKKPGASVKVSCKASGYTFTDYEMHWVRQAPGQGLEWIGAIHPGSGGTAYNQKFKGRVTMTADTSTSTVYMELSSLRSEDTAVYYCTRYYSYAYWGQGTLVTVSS VL: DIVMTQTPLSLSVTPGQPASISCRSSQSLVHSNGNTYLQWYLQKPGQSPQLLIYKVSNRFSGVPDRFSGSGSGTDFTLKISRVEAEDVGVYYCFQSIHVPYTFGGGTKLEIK", "kon": "646000 M⁻¹ s⁻¹"}
{"binder": "52H5D3B8-6#-VH4+VL3 (antibody, V domains shown, humanized) VH: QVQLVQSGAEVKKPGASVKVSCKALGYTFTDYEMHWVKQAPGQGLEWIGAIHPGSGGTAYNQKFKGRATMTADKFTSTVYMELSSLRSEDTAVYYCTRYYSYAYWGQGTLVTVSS VL: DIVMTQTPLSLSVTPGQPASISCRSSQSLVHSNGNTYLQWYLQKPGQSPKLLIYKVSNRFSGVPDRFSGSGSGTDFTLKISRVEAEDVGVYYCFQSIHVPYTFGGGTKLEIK", "kon": "709000 M⁻¹ s⁻¹"}
{"binder": "52H5D3B8-6#-VH1+VL3 (antibody, V domains shown, humanized) VH: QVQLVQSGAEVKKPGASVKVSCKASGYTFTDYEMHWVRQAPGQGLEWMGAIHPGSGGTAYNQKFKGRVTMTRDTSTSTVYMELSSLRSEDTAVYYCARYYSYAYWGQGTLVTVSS VL: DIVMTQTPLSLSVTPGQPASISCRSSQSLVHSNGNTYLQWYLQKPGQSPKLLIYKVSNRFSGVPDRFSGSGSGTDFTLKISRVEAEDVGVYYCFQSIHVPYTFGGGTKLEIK", "kon": "561000 M⁻¹ s⁻¹"}
